# maps each entry to its Plant response rating, Foxtail, Green
- Tested on: green foxtail (Setaria viridis)
- experiment description: Test B pre-/postemergence plant response
- Assay type: in vivo
- condition set: Postemergence, 250 g ai/ha; scale 0 to 100 (0 no effect, 100 complete control); 13 to 15 days
Hey, just send me the number, nothing else.

Example compounds with recorded Plant response rating, Foxtail, Green:
[[record]]
compound = "COCCn1c(-c2cccc(F)c2)ncc(C(=O)C2=C(O)C3CCC(C3)C2=O)c1=O (centres unmarked)"
tested_on = "green foxtail (Setaria viridis)"
assay_value = 98

[[record]]
compound = "COCCn1c(-c2cccc(Cl)c2)ncc(C(=O)C2=C(O)CCCC2=O)c1=O"
tested_on = "green foxtail (Setaria viridis)"
assay_value = 90

[[record]]
compound = "CCCn1c(-c2ccsc2)ncc(C(=O)C2=C(O)C3CCC(C3)C2=O)c1=O (centres unmarked)"
tested_on = "green foxtail (Setaria viridis)"
assay_value = 90


The compound listed as CCCn1c(-c2cc(C)cc(C)c2)ncc(C(=O)C2=C(O)CCCC2=O)c1=O has a reported Plant response rating, Foxtail, Green of 85

The compound listed as CCCn1c(-c2cccc(Br)c2)ncc(C(=O)C2=C(O)CCCC2=O)c1=O has a reported Plant response rating, Foxtail, Green of 90

* * *

- Tested on: goosegrass (Eleusine indica)
- experiment description: Test B pre-/postemergence plant response
- Type: in vivo
- condition set: Postemergence, 62 g ai/ha; scale 0 to 100 (0 no effect, 100 complete control)
measurement name: Plant response rating, Goosegrass

Example compounds with recorded Plant response rating, Goosegrass:
[[record]]
compound = "COCCn1c(-c2cccc(F)c2)ncc(C(=O)C2=C(O)C3CCC(C3)C2=O)c1=O (stereo not drawn)"
tested_on = "goosegrass (Eleusine indica)"
assay_value = 98

[[record]]
compound = "CCCCn1c(-c2cccc(F)c2)ncc(C(=O)C2=C(O)C3CCC(C3)C2=O)c1=O (stereo not drawn)"
tested_on = "goosegrass (Eleusine indica)"
assay_value = 98

[[record]]
compound = "COc1ccc(-n2c(-c3ccccc3)ncc(C(=O)C3=C(O)CCCC3=O)c2=O)cc1OC"
tested_on = "goosegrass (Eleusine indica)"
assay_value = 10

[[record]]
compound = "CC1(C)CC(=O)C(C(=O)c2cnc(-c3ccccc3)n(-c3ccccc3)c2=O)=C(O)C1"
tested_on = "goosegrass (Eleusine indica)"
assay_value = 90

[[record]]
compound = "COCCn1c(-c2ccsc2)ncc(C(=O)C2=C(O)C3CCC(C3)C2=O)c1=O (stereo not drawn)"
tested_on = "goosegrass (Eleusine indica)"
assay_value = 80


The compound listed as CCCn1c(-c2ccsc2)ncc(C(=O)C2=C(O)C3CCC(C3)C2=O)c1=O (stereo not drawn) has a reported Plant response rating, Goosegrass of 75

* * *

- Tested on: giant foxtail (Setaria faberii)
- experiment description: Test A pre-/postemergence plant response
- Assay type: in vivo
- condition set: Preemergence, 125 g ai/ha; 0 to 100 scale, 0 = no effect, 100 = complete control
# maps each entry to its Plant response rating, Foxtail, Giant
Hey, just send me the number, nothing else.

Example compounds with recorded Plant response rating, Foxtail, Giant:
[[record]]
compound = "O=C1CCCC(O)=C1C(=O)c1cnc(-c2cccc(Cl)c2)n(CC2CCCO2)c1=O (stereo not drawn) [Compound 142]"
measurement_name = "Plant response rating, Foxtail, Giant"
assay_value = 0

[[record]]
compound = "CCCCCn1c(-c2ccccc2)ncc(C(=O)C2=C(O)CCCC2=O)c1=O [Compound 89]"
measurement_name = "Plant response rating, Foxtail, Giant"
assay_value = 20

[[record]]
compound = "COCCCn1c(-c2cc(F)cc(F)c2)ncc(C(=O)C2=C(O)CCCC2=O)c1=O [Compound 120]"
measurement_name = "Plant response rating, Foxtail, Giant"
assay_value = 90

[[record]]
compound = "CCCc1ncc(C(=O)C2=C(O)CCCC2=O)c(=O)n1CC1CCCO1 (stereo not drawn) [Compound 74]"
measurement_name = "Plant response rating, Foxtail, Giant"
assay_value = 0

[[record]]
compound = "O=C1CCCC(O)=C1C(=O)c1cnc(-c2ccccc2)n(-c2ccccc2F)c1=O [Compound 26]"
measurement_name = "Plant response rating, Foxtail, Giant"
assay_value = 30


The compound listed as O=C1CCCC(O)=C1C(=O)c1cnc(-c2ccccc2)n(-c2cccc(Br)c2)c1=O [Compound 38] has a reported Plant response rating, Foxtail, Giant of 10

The compound listed as O=C1CCCC(O)=C1C(=O)c1cnc(-c2ccccc2)n(-c2cccc(F)c2)c1=O [Compound 22] has a reported Plant response rating, Foxtail, Giant of 20

The compound listed as Cn1c(-c2ccccc2)ncc(C(=O)C2=C(O)CCCC2=O)c1=O [Compound 55] has a reported Plant response rating, Foxtail, Giant of 0

The compound listed as O=C1CCCC(O)=C1C(=O)c1cnc(-c2ccc(F)cc2)n(C2CCCCC2)c1=O [Compound 197] has a reported Plant response rating, Foxtail, Giant of 0

The compound listed as CCn1c(-c2ccccc2)ncc(C(=O)C2=C(O)C3CCC(C3)C2=O)c1=O (stereo not drawn) [Compound 239] has a reported Plant response rating, Foxtail, Giant of 20

The compound listed as COCCn1c(-c2cc(F)cc(F)c2)ncc(C(=O)C2=C(O)CCCC2=O)c1=O [Compound 119] has a reported Plant response rating, Foxtail, Giant of 90

The compound listed as CCCCn1c(-c2cccc(Cl)c2)ncc(C(=O)C2=C(O)CCCC2=O)c1=O [Compound 146] has a reported Plant response rating, Foxtail, Giant of 30

The compound listed as Cc1cccc(-c2ncc(C(=O)C3=C(O)CCCC3=O)c(=O)n2C2CCCCC2)c1 [Compound 185] has a reported Plant response rating, Foxtail, Giant of 0

The compound listed as O=C1CCCC(O)=C1C(=O)c1cnc(-c2ccccc2)n(C2CC[S+]([O-])CC2)c1=O (mixture of isomers) [Compound 168] has a reported Plant response rating, Foxtail, Giant of 10

The compound listed as O=C1CCCC(O)=C1C(=O)c1cnc(-c2ccccc2)n(C2CCCC2)c1=O [Compound 131] has a reported Plant response rating, Foxtail, Giant of 60

The compound listed as CCCc1ncc(C(=O)C2=C(O)CCCC2=O)c(=O)n1-c1ccccc1C [Compound 73] has a reported Plant response rating, Foxtail, Giant of 50

The compound listed as CCn1c(-c2cccc(C)c2)ncc(C(=O)C2=C(O)C3CCC(C3)C2=O)c1=O (stereo not drawn) [Compound 231] has a reported Plant response rating, Foxtail, Giant of 0

The compound listed as CCCn1c(-c2ccc(F)cc2)ncc(C(=O)C2=C(O)CCCC2=O)c1=O [Compound 102] has a reported Plant response rating, Foxtail, Giant of 80

The compound listed as CCc1ccc(-n2c(-c3cccc(Br)c3)ncc(C(=O)C3=C(O)CCCC3=O)c2=O)cc1 [Compound 177] has a reported Plant response rating, Foxtail, Giant of 0

The compound listed as CCCCn1c(-c2cccc(F)c2)ncc(C(=O)C2=C(O)C3CCC(C3)C2=O)c1=O (stereo not drawn) [Compound 237] has a reported Plant response rating, Foxtail, Giant of 40

The compound listed as CC1(C)CC(=O)C(C(=O)c2cnc(-c3ccccc3)n(-c3ccccc3)c2=O)=C(O)C1 [Compound 225] has a reported Plant response rating, Foxtail, Giant of 40
